Biological target: T1, ARHGAP21, Q5T5U3
T1 sequence (Q5T5U3 45-169, limits assumed, looked up): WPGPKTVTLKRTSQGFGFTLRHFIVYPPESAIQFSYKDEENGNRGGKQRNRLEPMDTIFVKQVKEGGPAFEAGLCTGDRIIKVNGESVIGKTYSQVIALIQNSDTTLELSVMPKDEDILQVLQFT
Assay: holdup assay
Design: key: below the threshold = too weak to quantify, mostly under pKd 3.1 to 4
Settings: plain residues with an end cap or a label only (N-terminal biotin on a linker: ado-ado)
Parameter measured: pKd
The answer should be a number; do not append a unit.

Consider the following illustrative entries.
SPDRDRESIV [SCN5A, Q14524] = 3.91
ELSATVTTDC [TRIP6, Q15654] = 4.27
VLYPREGTEV [FOXI1, Q12951] = 4

Prompt: Entry EDGESWEYQI [TRPV6, Q9H1D0] : reported pKd = ?
Response: 3.57

Source: paper PMC9482650
